# test target: UniProt:Q9NR97
# Sequence (Q9NR97 27-1041): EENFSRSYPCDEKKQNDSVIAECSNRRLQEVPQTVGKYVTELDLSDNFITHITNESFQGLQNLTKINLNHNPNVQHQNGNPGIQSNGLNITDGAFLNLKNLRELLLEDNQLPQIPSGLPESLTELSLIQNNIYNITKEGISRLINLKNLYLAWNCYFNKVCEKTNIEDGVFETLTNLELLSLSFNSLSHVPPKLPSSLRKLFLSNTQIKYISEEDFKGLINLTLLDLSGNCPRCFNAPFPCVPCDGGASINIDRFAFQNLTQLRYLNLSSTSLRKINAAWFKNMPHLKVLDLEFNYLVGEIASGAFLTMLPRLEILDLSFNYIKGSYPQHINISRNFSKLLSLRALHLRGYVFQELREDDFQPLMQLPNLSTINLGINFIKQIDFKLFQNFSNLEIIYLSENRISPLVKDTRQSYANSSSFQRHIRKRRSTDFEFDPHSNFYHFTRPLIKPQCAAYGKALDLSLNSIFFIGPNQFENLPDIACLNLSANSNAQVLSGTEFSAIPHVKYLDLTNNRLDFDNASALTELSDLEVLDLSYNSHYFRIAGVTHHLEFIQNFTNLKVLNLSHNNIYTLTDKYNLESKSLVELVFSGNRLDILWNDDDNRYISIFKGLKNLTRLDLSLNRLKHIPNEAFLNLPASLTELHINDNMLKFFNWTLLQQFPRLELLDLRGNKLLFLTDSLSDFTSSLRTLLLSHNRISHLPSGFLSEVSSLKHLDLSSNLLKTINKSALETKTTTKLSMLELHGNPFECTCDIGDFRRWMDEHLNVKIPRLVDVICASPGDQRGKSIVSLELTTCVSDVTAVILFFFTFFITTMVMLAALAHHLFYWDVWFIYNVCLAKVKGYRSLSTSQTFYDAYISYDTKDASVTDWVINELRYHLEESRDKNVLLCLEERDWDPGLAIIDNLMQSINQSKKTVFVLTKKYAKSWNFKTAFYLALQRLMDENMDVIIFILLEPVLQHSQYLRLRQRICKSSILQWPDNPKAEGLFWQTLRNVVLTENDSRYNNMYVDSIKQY
# assay explanation: HEK293-Blue-hTLR-8 cells assay
# applied conditions: HEK293-Blue-hTLR8 cells, R848 stimulation, 20 hrs, SEAP reporter; read-out: HEK/hTLR8 IC50
pIC50: −log10 of the molar value.
experimental endpoint: pIC50

Consider the worked cases shown below.
[[record]]
compound = "C[C@@H]1CN(c2ccc(C#N)c3ncccc23)C[C@@H]2c3ccc(N4C[C@@H](N)[C@@H](F)C4)cc3CN12"
reading = 9.22

[[record]]
compound = "[2H]c1ccc2c(N3C[C@@H](C)N4Cc5cc(N6CC7(CNCCO7)C6)ccc5[C@H]4C3)ccc(C#N)c2n1"
reading = "> 9.52"

[[record]]
compound = "CO[C@H]1CN(c2ccc3c(c2)CN2C3CN(c3ccc(C#N)c4ncccc34)C[C@H]2C)C[C@@H]1N (single isomer, unassigned) [Example 16A]"
reading = "> 8.49"


# evaluate next
Can you look up the measured pIC50 of `C[C@@H]1CN(c2ccc(C#N)c3ncccc23)C[C@@H]2c3ccc(N4CC5(CNCCO5)C4)cc3CN12` for me?
> 8.49
